# measured_on: nucleotide binding site of mouse anti-FITC antibody
# assay_remarks: Sandwich ELISA binding of biotin-linked indole-3-butyric acid to antigen-captured antibody
# condition_description: fit of normalized fluorescent intensity, read-out: Kd (binding affinity)
observable: pKd
Numbers only, as −log10 of the molar value.

Query string: Find the measured pKd: item `O=C(O)CCCc1c[nH]c2ccccc12` , target or system nucleotide binding site of mouse anti-FITC antibody.
Result string: 5.19

----------
# measured_on: nucleotide binding site of three different antibodies
# assay_remarks: Sandwich ELISA, summary over three antibodies
# condition_description: range over three different antibodies; read-out: monovalent Kd values
pKd: −log10 of the molar value.
observable: pKd

Query string: Entry under review: `O=C(O)CCCc1c[nH]c2ccccc12` . Reported pKd?
Result string: 5.15 to 6.00
